Every entry's value here was drawn from patent US9493446B2.

# system_tested: human orexin-2 receptor (Homo sapiens (Human))
# protocol_text: Intracellular calcium measurement (FLIPR), CHO cells expressing human orexin-2 receptor, 3 nM orexin-A
# Type: cell-based
# conditions: CHO cells expressing human orexin-2 receptor, FLIPR, 3 nM orexin-A; geometric mean if determined several times; read-out: IC50 OX2
pIC50: −log10 of the molar value.
pIC50 vs 8: at or above is yes (1), below is no (0).

Here are 3 compounds together with their reported answers.
{"given_smiles": "O=C(c1cc(F)ccc1-c1ccn[nH]1)N1CCC[C@H]1c1nc(-c2ccccc2OC(F)(F)F)no1", "qualitative_label": "no (0)"}
{"given_smiles": "CCOc1ccccc1-c1noc([C@@H]2CCCN2C(=O)c2cc(C)ccc2-n2nccn2)n1", "qualitative_label": "yes (1)"}
{"given_smiles": "Cc1ccc(-n2nccn2)c(C(=O)N2CCC[C@H]2c2nnc(-c3ccccc3OC(F)(F)F)o2)c1", "qualitative_label": "no (0)"}

Then there is this compound:
Please indicate if the recorded pIC50 for COc1c(Cl)cccc1-c1nc([C@@H]2CCCN2C(=O)c2ccc(C)cc2-n2nccn2)no1 meets or exceeds 8.
yes (1)

* * *

# system_tested: human orexin-2 receptor (Homo sapiens (Human), UniProt O43614)
# Sequence (O43614 whole entry): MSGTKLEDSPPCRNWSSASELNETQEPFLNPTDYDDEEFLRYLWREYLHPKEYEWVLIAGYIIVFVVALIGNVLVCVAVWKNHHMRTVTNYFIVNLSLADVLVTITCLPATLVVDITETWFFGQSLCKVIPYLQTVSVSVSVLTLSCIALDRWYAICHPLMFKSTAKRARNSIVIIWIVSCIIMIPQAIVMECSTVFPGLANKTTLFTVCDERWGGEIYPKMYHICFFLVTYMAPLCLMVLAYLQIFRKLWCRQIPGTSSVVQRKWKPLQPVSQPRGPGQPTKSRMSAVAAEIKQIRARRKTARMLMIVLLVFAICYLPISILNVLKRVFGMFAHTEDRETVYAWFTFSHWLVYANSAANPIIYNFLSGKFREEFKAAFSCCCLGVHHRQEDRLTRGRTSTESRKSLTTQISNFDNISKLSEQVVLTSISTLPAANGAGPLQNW
# protocol_text: Intracellular calcium measurement (FLIPR), CHO cells expressing human orexin-2 receptor, 3 nM orexin-A
# Type: cell-based
# conditions: CHO cells expressing human orexin-2 receptor, FLIPR, 3 nM orexin-A; geometric mean if determined several times; read-out: IC50 OX2
quantity_measured: pIC50
One number for each entry, as −log10 of the molar value.

Consider the following illustrative entries.
{"compound": "O=C(c1cccc(F)c1-c1ccn[nH]1)N1CCC[C@H]1c1nc(-c2ccccc2OC(F)(F)F)no1 [compound 168]", "system_tested": "human orexin-2 receptor (Homo sapiens (Human), UniProt O43614)", "result_number": 8.00}
{"compound": "COc1cc(C(=O)N2CCC[C@H]2c2nc(-c3cccc(Cl)c3C)no2)c(-n2cccn2)cc1C [compound 105]", "system_tested": "human orexin-2 receptor (Homo sapiens (Human), UniProt O43614)", "result_number": 8.10}

Then there is this compound:
Look up pIC50 for this compound: Cc1ccc(-n2nccn2)c(C(=O)N2CCC[C@H]2c2nc(-c3cccc4c3ccn4C)no2)c1 [compound 74]
8.22
